- System: Plasmodium berghei
- Assay Procedure: Screen against P. berghei liver stage (PbLuc), transformed with Luciferase, at 10uM
- Type: functional, HepG2
- Condition Notes: tested at 10 uM
The whole screen tested about 69,000 compounds, of which about 8,600 (12%) showed an effect of 50% or more. The full list was thinned out, with strong results kept by preference.
Use 1.0 when the recorded INHIBITION is no lower than 50%; use 0.0 when it is lower.

INSERT INTO assay_data (molecule, target_system, cat) VALUES
  ('CCOCC1CN(c2ccncn2)Cc2cnn(CC3CC3)c21 (configuration not stated)', 'Plasmodium berghei', 0.0),
  ('Cn1c(=O)c2sccc2n(Cc2ccccc2)c1=O', 'Plasmodium berghei', 0.0),
  ('CCc1cnc(CN(C)C2CCN(CC(=O)Nc3nccs3)C2)o1 (configuration not stated)', 'Plasmodium berghei', 1.0),
  ('CC(C)c1nc(CN(C)C2CCN(CCn3cc(C#N)cn3)C2)no1 (configuration not stated)', 'Plasmodium berghei', 0.0),
  ('Cc1ncoc1C(=O)N1CC[C@@H](O)[C@@H](O)[C@H](N2CCC(F)(F)CC2)C1', 'Plasmodium berghei', 0.0);

---

Entries annotated with measured INHIBITION
- Test system: Plasmodium berghei
- Assay Procedure: Screen against P. berghei liver stage (PbLuc), transformed with Luciferase, at 10uM
- Type: functional, HepG2
- Condition Notes: tested at 10 uM
The campaign covered roughly 69,000 compounds. About 8,600 (12%) showed an effect of 50% or more. Only a selection was taken, and strong results are over-represented in it overall.
Measurement Type: INHIBITION (%)

INSERT INTO measurements (molecule, readout_units, measured_value) VALUES
  ('CN(C(=O)Cc1coc(-c2ccccc2)n1)C1(C#N)CCC1', '%', 78.3),
  ('Cc1cc(N2CCCC2c2cncc(N(C)C)n2)ncn1 (stereo not given)', '%', 14.7),
  ('O=C(c1cnc(Nc2ccccc2)nc1)N1CCS(=O)(=O)CC1', '%', 27.4),
  ('CCc1ccc(C2CC(=O)Nc3c2c(=O)n(C)c2ncnn32)cc1 (stereo not given)', '%', 0.207),
  ('CC(C)Oc1cccc(F)c1C(C(=O)O)N(C)Cc1ccon1 (stereo not given)', '%', 71.2),
  ('Cc1ccc(NC2CCCN(C3Cc4ccccc4C3)C2)nn1 (stereo not given)', '%', 34.9),
  ('COc1cc(-c2cc(C3CCOC3)c(C#N)c(N)n2)ccc1O (stereo not given)', '%', 53),
  ('O=C(c1ccnc(-n2cnnc2)c1)N1CCCC2(CCNC2)C1 (stereo not given)', '%', 56.5),
  ('Cc1nccn1-c1ccc(CNC(=O)c2ccc(O)nc2)cn1', '%', 38.3),
  ('CNc1cncc(C2CCCN2C(=O)c2ccc3c(c2)OCCO3)n1 (stereo not given)', '%', 30.8),
  ('Cc1nccn1-c1ccc(CNS(=O)(=O)N2CCCCC2C)cn1 (stereo not given)', '%', 43.9),
  ('CNc1cncc(C2CCCN2C(=O)c2ccc3oc(C)cc3c2)n1 (stereo not given)', '%', 6.81),
  ('COc1cc(F)ccc1C(C(=O)O)N(C)Cc1ccon1 (stereo not given)', '%', -66.4),
  ('c1ccc2c(c1)CC(N1CCCC(NCc3ccc4nonc4c3)C1)C2 (stereo not given)', '%', 50.1),
  ('COc1ccc(Cl)cc1C(C(=O)O)N(C)Cc1ccon1 (stereo not given)', '%', -73.6),
  ('Cc1nccn1-c1ccc(CNS(=O)(=O)N2CCC(C)CC2)cn1', '%', 76),
  ('CNc1cncc(C2CCCN2Cc2ccccn2)n1 (stereo not given)', '%', 35.8),
  ('CCN(Cc1ccncc1)c1cc(C2CCCNC2)nc(C)n1 (stereo not given)', '%', 53.7),
  ('Cc1nccn1-c1ccc(CNC(=O)c2ccc[nH]2)cn1', '%', 10.5),
  ('Cc1nc(C2CCCNC2)cc(N(C)CCc2ccccc2)n1 (stereo not given)', '%', -16.5),
  ('c1ccc2c(c1)CC(N1CCCC(NCc3cccc4nonc34)C1)C2 (stereo not given)', '%', 41.5),
  ('O=C(c1ccc(-n2cnnc2)cc1Cl)N1CCCC2(CCNC2)C1 (stereo not given)', '%', 35.1),
  ('CCc1ccc(-n2nnc(C(=O)O)c2-c2ccccn2)cc1', '%', 9.84),
  ('O=C1CC(NCc2cnc(C3CCCCC3)nc2)CN1c1ccccc1 (stereo not given)', '%', 56.5),
  ('CCN(Cc1ccncc1)c1cc(C2CCNCC2)nc(C)n1', '%', 14.6),
  ('CN(C)C(=O)COC[C@]12COC[C@H]1CN(Cc1ccco1)C2', '%', -3.33),
  ('O=C(C1CCOCC1)N1C[C@@H]2[C@@H](C1)OCC(=O)N2CC1CC1', '%', 7.96),
  ('Cc1cc(C)nc(Nc2cccc(C3CCCN(S(C)(=O)=O)C3)n2)n1 (stereo not given)', '%', 44.8),
  ('Cc1c[nH]c(CN(C)C(C(=O)O)c2c(F)cccc2OC(C)C)n1 (stereo not given)', '%', 58.2),
  ('Cc1ccc(C2c3c(n[nH]c3C)N=C3COC(=O)C32)cc1C (stereo not given)', '%', 55.3),
  ('CCCC1c2cccn2CCN1S(=O)(=O)N1CCOCC1 (stereo not given)', '%', 1.65),
  ('Cc1oc(-c2cccs2)nc1C(=O)N(C)C1(C#N)CCC1', '%', -11.6),
  ('CNc1cncc(C2CCCN2c2cc(C)ncn2)n1 (stereo not given)', '%', 52),
  ('Cc1nccn1-c1ccc(CNS(=O)(=O)N2CCCC(C)C2)cn1 (stereo not given)', '%', 37.7),
  ('CN(C)c1ncc(-c2cc(C(=O)NCCC#N)n(CC3CC3)c2)cn1', '%', -2.35),
  ('O=C(NCc1ccc2nonc2c1)C1CCN(C(=O)C2CCC2)CC1', '%', -119),
  ('Cc1c[nH]c(CN(C)C(C(=O)O)c2c(F)cccc2Cl)n1 (stereo not given)', '%', 16.5),
  ('Cc1cc(-c2cc(C3CCOC3)c(C#N)c(N)n2)ccc1Cl (stereo not given)', '%', 23.9),
  ('c1cc(C2CCN(C3CCCCC3)C2)n[nH]1 (stereo not given)', '%', 18.535),
  ('CCC1CCCN(S(=O)(=O)c2cnc3onc(C)c3c2)C1 (stereo not given)', '%', 9);

---

Entries annotated with measured INHIBITION
- Tested on: Plasmodium berghei
- Assay Procedure: Screen against P. berghei liver stage (PbLuc), transformed with Luciferase, at 10uM
- Format: functional, HepG2
- Condition Notes: tested at 10 uM
Out of some 69,000 compounds screened, about 8,600 (12%) showed an effect of 50% or more. The sample as a whole holds a higher share of strong results than the screen did.
Measurement Type: INHIBITION (%)

INSERT INTO assay_data (compound, measured_value) VALUES
  ('CN(Cc1ccsc1)C(=O)c1cccc(S(=O)(=O)NCC2CCCO2)c1 (stereo not given)', 23.4),
  ('Cc1cc(C)nc(NC2CCN(CCOC(C)C)CC2)n1', 43.9),
  ('Cn1ncc(C(=O)N2CCN(C(=O)c3ccco3)CC2)c1Cl', 36.5),
  ('Cc1cccc(C(=O)N2CCN(C)CC2)c1NC(=O)c1ccncc1', 52.6),
  ('COc1ccc(F)c(-c2ncccc2C(=O)N2C[C@@H]3CC[C@H]2C3)c1', 39),
  ('Cc1cc(C(=O)NC2(c3cccc(F)c3)CCOCC2)no1', 20.6),
  ('C1CC(c2noc(C3CC3)n2)N(Cc2nc(C3CC3)no2)C1 (stereo not given)', 2.3),
  ('CCOC(=O)CNC(=O)NCc1cc(C)n(-c2ccc(OC)cc2)c1C', 21.7),
  ('CN1CC(C(=O)NC2(c3cccc(F)c3)CCOCC2)CC1=O (stereo not given)', -36),
  ('CC(C)OCCN1CCC(Nc2ncc(Br)cn2)CC1', 28.7),
  ('Cc1nn(C)c(C)c1C1CCCN1Cc1nc(N)c2ccccc2n1 (stereo not given)', 23.4),
  ('O=C(NC1(c2cccc(F)c2)CCOCC1)c1ccoc1', 18.5),
  ('O=C(CN1CCC(Nc2ncccn2)CC1)Nc1ccccc1', 66.1),
  ('COc1ccnc(NC2CCN(CC(=O)Nc3ccccc3)CC2)n1', 60.8),
  ('N#CC1(NC(=O)c2ccc(-c3nc(C4CC4)n[nH]3)cc2)CCC1', 28.8);

---

Entries annotated with measured INHIBITION
- System: Plasmodium berghei
- Assay Procedure: Screen against P. berghei liver stage (PbLuc), transformed with Luciferase, at 10uM
- Type: functional, HepG2
- Condition Notes: tested at 10 uM
Screen size: about 69,000 compounds; about 8,600 (12%) showed an effect of 50% or more. Shown is part of a subset that was picked to be rich in strong results.
Measurement Type: INHIBITION (%)

INSERT INTO results (compound, target_system, measurement_type, measured_value) VALUES
  ('Cc1ccc(SC2CCCC2)c(C(=O)NCCO)c1', 'Plasmodium berghei', 'INHIBITION', 90.7),
  ('COc1ccc(-c2ccnc3nc(N4CCCC4)[nH]c(=O)c23)cc1OC', 'Plasmodium berghei', 'INHIBITION', 40),
  ('O=C(C1CC=CC1)N1C[C@@H]2CN(Cc3ccsc3)CCO[C@@H]2C1', 'Plasmodium berghei', 'INHIBITION', 53.2),
  ('OC(CN(Cc1ccccc1)Cc1cccnc1)c1cccs1 (configuration not stated)', 'Plasmodium berghei', 'INHIBITION', 57.2),
  ('COCc1nnc(C(=O)N2CC(N3CCCCC3)C2)o1', 'Plasmodium berghei', 'INHIBITION', 10.6),
  ('CCOc1ccnc(NCc2nc(C)cc(=O)[nH]2)n1', 'Plasmodium berghei', 'INHIBITION', 27.8),
  ('CCN(Cc1ccoc1)C(=O)NC1CCN(CC2CCCC2)CC1', 'Plasmodium berghei', 'INHIBITION', 48.5),
  ('CN(C)CCN1CCO[C@@H]2CN(C(=O)c3cccs3)CC[C@@H]2C1', 'Plasmodium berghei', 'INHIBITION', 15.9),
  ('CN1CCc2nc(C3CCCN(S(=O)(=O)N4CCCC4)C3)ncc2C1 (configuration not stated)', 'Plasmodium berghei', 'INHIBITION', 23.325),
  ('CS(=O)(=O)N1CCO[C@@H]2CN(C(=O)Cc3cccs3)CC[C@@H]2C1', 'Plasmodium berghei', 'INHIBITION', 16.8),
  ('CC(=O)NCCNC(=O)c1cc(C)ccc1SC1CCCC1', 'Plasmodium berghei', 'INHIBITION', 49.9),
  ('c1csc(CN2C[C@H](OCC3CC3)[C@H]3COC[C@H]32)n1', 'Plasmodium berghei', 'INHIBITION', 12.6);
